Ratio Ki by entry:
Organism: Homo sapiens
Experiment: Selectivity index, ratio of Ki for human recombinant CB1 receptor to Ki for human recombinant CB2 receptor

Below: 2 compounds and their reported Ratio Ki.
| smiles-str | Ratio Ki |
| --- | --- |
| CCCCCCC(C)(C)c1cc(O)cc(OCCCCCCCCCCCNC(=O)C2CC2)c1 | 3.18 |
| CCCCCCc1ccc(O)cc1OCCCCCCCCCCC(=O)NC(CO)CO | > 4.22 |

Ratio Ki measured on CCCCCc1cc(O)cc(OCCCCCCCCCCCCNC2CC2)c1 = < 0.08

---

Biological target: Transient receptor potential cation channel subfamily V member 1 (Homo sapiens)
Sequence (Q8NER1 whole entry): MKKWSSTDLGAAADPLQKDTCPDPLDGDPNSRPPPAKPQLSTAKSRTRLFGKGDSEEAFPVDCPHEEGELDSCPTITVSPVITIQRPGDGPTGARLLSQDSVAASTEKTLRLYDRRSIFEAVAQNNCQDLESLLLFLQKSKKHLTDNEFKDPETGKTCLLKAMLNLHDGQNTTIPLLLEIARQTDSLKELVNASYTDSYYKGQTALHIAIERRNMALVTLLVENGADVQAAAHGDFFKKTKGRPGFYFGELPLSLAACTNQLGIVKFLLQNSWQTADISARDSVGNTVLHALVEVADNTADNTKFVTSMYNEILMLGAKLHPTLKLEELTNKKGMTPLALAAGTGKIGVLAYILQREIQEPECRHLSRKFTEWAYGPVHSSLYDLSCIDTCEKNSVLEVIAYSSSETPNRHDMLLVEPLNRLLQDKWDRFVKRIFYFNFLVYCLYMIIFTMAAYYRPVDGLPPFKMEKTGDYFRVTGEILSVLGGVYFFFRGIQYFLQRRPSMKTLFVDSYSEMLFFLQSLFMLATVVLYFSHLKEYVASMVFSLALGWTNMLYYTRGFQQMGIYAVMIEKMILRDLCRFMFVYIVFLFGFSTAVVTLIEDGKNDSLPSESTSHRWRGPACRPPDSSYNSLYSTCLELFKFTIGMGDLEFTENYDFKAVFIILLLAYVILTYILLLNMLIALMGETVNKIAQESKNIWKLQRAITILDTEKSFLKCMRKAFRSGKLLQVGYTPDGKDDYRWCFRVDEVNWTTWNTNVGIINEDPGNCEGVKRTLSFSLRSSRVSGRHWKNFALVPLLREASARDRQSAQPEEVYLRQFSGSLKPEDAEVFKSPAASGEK
Assay: Antagonist activity against human recombinant TRPV1 expressed in HEK293 cells assessed as reduction in capsaicin-induced intracellular calcium response pre-incubated 5 mins before capsaicin addition by fluorescence assay
reported-endpoint: pIC50
When answering, recall that pIC50 equals minus log10 of the concentration in mol/L, and write that number alone.

pIC50 measured on C=CCNC(=O)CCCCCCCOc1cc(O)cc(C(C)(C)CCCCCC)c1 = 4.62

---

IC50 by entry:
Molecular target: Fatty-acid amide hydrolase 1 (Rattus norvegicus, UniProt P97612)
Sequence (P97612 whole entry): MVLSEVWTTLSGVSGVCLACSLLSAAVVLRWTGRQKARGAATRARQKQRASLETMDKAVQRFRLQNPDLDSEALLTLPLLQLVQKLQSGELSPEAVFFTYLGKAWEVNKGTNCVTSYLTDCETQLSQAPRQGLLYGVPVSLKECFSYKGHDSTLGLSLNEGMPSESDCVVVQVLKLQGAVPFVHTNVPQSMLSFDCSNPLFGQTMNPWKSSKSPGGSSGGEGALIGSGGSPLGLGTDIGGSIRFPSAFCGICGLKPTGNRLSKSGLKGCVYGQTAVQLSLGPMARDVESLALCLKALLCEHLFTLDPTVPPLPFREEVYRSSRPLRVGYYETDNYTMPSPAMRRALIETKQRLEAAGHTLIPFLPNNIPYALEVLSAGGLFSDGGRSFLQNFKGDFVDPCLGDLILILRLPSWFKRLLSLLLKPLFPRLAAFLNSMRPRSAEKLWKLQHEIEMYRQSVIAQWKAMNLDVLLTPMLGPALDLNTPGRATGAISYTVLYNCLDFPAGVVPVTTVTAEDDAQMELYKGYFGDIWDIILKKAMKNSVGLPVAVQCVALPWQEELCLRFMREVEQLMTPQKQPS
Test: Inhibition of FAAH in rat brain membranes assessed as reduction in [14C] anandamide hydrolysis by scintillation counting method

| smiles-str | measured-value |
| --- | --- |
| CCCCCc1cc(O)cc(OCCCCCCCCCCC(=O)NN(C)C)c1 | > 10 µM |

IC50 measured on CCCCCc1cc(O)cc(OCCCCCCCCCCC(=O)NN2CCCCC2)c1 = > 10 µM

---

pKi by entry:
Target: Cannabinoid receptor 2 (Homo sapiens)
Assay: Displacement of [3H]CP-55,940 from human recombinant CB2 receptor expressed in HEK293 cell membranes
When answering, recall that pKi equals minus log10 of the concentration in mol/L, and write that number alone.

| smiles-str | measured-value |
| --- | --- |
| C=CCNC(=O)CCCCCCCOc1cc(O)cc(C(C)(C)CCCCCC)c1 | 8.13 |
| CCCCCc1cc(O)cc(OCCCCCCCCCCC(=O)NCC(F)(F)F)c1 | 7.02 |

pKi measured on CCCCCCC(C)(C)c1cc(O)cc(OCCCCCCCCCCCNC(=O)C2CC2)c1 = 6.19

---

Ratio Ki by entry:
Species: Homo sapiens
Experiment: Selectivity index, ratio of Ki for human recombinant CB1 receptor to Ki for human recombinant CB2 receptor
A bare number is all that is needed in reply.

| smiles-str | measured-value |
| --- | --- |
| CCCCCc1cc(O)cc(OCCCCCCCC(=O)N[C@H](C)CO)c1 | 0.11 |
| C=CCNCCCCCCCCCCCOc1cc(O)cc(CCCCC)c1 | 0.62 |
| CCCCCc1cc(O)cc(OCCCCCCCCCN[C@H](C)CO)c1 | 0.7 |
| CCCCCCC(C)(C)c1cc(O)cc(OCCCCCCCC(=O)NCC(F)(F)F)c1 | 14.2 |

Ratio Ki measured on CCCCCc1cc(O)cc(OCCCCCCCCCCC(=O)N[C@H](C)CO)c1 = 2.72

Ratio Ki measured on CCCCCc1cc(O)cc(OCCCCCCCCCCC(=O)NCC(F)(F)F)c1 = 4.55

---

Species on record: Homo sapiens
Assay: Selectivity index, ratio of Ki for human recombinant CB2 receptor to Ki for human recombinant CB1 receptor
reported-endpoint: Ratio Ki
A bare number is all that is needed in reply.

| smiles-str | Ratio Ki |
| --- | --- |
| CCCCCCC(C)(C)c1cc(O)cc(OCCCCCCCC(=O)NC(CO)CO)c1 | 4.6 |
| CCCCCCC(C)(C)c1cc(O)cc(OCCCCCCCC(=O)N[C@H](C)CO)c1 | 2.92 |
| CCCCCc1cc(O)cc(OCCCCCCCCCCC(=O)NCC(F)(F)F)c1 | 0.22 |
| CCCCCc1cc(O)cc(OCCCCCCCCCCCNCc2ccccc2)c1 | 0.67 |
| CCCCCCC(C)(C)c1cc(O)cc(OCCCCCCCCCCCNC(=O)C2CC2)c1 | 0.31 |
| CCCCCCC(C)(C)c1cc(O)cc(OCCCCCCCCCCC(=O)NC(CO)CO)c1 | 0.12 |
| CCCCCc1cc(O)cc(OCCCCCCCCCCC(=O)NN(C)C)c1 | 0.22 |
| C=CCNCCCCCCCCCCCOc1cc(O)cc(CCCCC)c1 | 1.62 |

Ratio Ki measured on CCCCCc1cc(O)cc(OCCCCCCCCCCCNC(=O)C2CC2)c1 = 0.17

Ratio Ki measured on C=CCNC(=O)CCCCCCCOc1cc(O)cc(C(C)(C)CCCCCC)c1 = 1.02

Ratio Ki measured on CCCCCc1cc(O)cc(OCCCCCCCCCCC(=O)N[C@H](C)CO)c1 = 0.37

Ratio Ki measured on CCCCCCc1ccc(O)cc1OCCCCCCCCCCCNC(=O)C1CC1 = 0.28

Ratio Ki measured on CCCCCc1cc(O)cc(OCCCCCCCC(=O)N[C@H](C)CO)c1 = 9.32

Ratio Ki measured on CCCCCCC(C)(C)c1cc(O)cc(OCCCCCCCC(=O)NCC(F)(F)F)c1 = 0.07

Ratio Ki measured on CCCCCc1cc(O)cc(OCCCCCCCCCCCNC2CC2)c1 = 0.91

Ratio Ki measured on CCCCCCC(C)(C)c1cc(O)cc(OCCCCCCCCCCC(=O)N[C@H](C)CO)c1 = 0.16

Ratio Ki measured on CCCCCc1cc(O)cc(OCCCCCCCCCCC(=O)NN2CCCCC2)c1 = 0.38

Ratio Ki measured on C=CCNC(=O)CCCCCCCCCCOc1cc(O)cc(CCCCC)c1 = 0.12

Ratio Ki measured on CCCCCc1cc(O)cc(OCCCCCCCCCN[C@H](C)CO)c1 = 1.43

---

Target: UniProt:Q8NER1
Assay: Agonist activity at human recombinant TRPV1 expressed in HEK293 cells assessed as increase in intracellular calcium level by fluorescence assay
reported-endpoint: pEC50
When answering, recall that pEC50 equals minus log10 of the concentration in mol/L, and write that number alone.

pEC50 measured on C=CCNC(=O)CCCCCCCOc1cc(O)cc(C(C)(C)CCCCCC)c1 = 5.16

---

Molecular target: Cannabinoid receptor 1 (Homo sapiens, UniProt P21554)
Sequence (P21554 whole entry): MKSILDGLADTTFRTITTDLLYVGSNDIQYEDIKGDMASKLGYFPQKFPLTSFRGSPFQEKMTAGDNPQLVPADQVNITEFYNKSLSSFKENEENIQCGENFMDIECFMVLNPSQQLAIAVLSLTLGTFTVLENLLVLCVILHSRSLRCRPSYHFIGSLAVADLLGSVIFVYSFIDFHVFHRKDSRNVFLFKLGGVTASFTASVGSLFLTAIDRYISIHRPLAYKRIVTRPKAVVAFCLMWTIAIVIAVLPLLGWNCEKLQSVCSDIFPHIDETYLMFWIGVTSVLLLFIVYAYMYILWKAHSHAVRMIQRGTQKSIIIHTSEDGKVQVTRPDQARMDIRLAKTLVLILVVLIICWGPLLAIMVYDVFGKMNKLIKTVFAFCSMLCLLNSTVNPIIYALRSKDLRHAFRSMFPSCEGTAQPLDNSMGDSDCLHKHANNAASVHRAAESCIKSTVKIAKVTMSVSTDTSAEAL
Test: Agonist activity at human recombinant CB1 receptor expressed in CHO cell membranes by [35S]GTPgammaS binding assay
reported-endpoint: EC50 (nM)
Record the value in nM, omitting the unit from your answer.

EC50 measured on C=CCNC(=O)CCCCCCCOc1cc(O)cc(C(C)(C)CCCCCC)c1 = 138

---

Ki by entry:
Biological target: Cannabinoid receptor 2 (Homo sapiens, UniProt P34972)
Sequence (P34972 whole entry): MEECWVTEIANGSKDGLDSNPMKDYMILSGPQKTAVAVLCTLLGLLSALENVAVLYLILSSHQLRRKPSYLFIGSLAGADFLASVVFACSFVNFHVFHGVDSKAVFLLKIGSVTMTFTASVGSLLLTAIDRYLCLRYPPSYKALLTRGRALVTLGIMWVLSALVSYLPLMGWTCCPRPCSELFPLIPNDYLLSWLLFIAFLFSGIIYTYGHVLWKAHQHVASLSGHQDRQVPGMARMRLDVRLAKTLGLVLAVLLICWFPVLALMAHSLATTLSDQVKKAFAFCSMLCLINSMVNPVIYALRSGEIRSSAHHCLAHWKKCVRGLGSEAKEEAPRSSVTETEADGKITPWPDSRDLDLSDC
Assay: Displacement of [3H]CP-55,940 from human recombinant CB2 receptor expressed in HEK293 cell membranes
Record the value in nM, omitting the unit from your answer.

Below: 5 molecules and their reported Ki.
| smiles-str | Ki (nM) |
| --- | --- |
| CCCCCCC(C)(C)c1cc(O)cc(OCCCCCCCCCCC(=O)N[C@H](C)CO)c1 | 21.2 |
| CCCCCCC(C)(C)c1cc(O)cc(OCCCCCCCC(=O)NC(CO)CO)c1 | 815 |
| CCCCCCC(C)(C)c1cc(O)cc(OCCCCCCCC(=O)NCC(F)(F)F)c1 | 27.9 |
| CCCCCc1cc(O)cc(OCCCCCCCCCCC(=O)NCc2ccccc2)c1 | 202 |
| CCCCCc1cc(O)cc(OCCCCCCCCCCC(=O)Nc2ccccc2)c1 | 128 |

Ki measured on CCCCCc1cc(O)cc(OCCCCCCCCCCC(=O)NN(C)C)c1 = 183

Ki measured on CCCCCc1cc(O)cc(OCCCCCCCC(=O)N[C@H](C)CO)c1 = 119

Ki measured on C=CCNC(=O)CCCCCCCCCCOc1cc(O)cc(CCCCC)c1 = 16.4

Ki measured on CCCCCCC(C)(C)c1cc(O)cc(OCCCCCCCC(=O)N[C@H](C)CO)c1 = 50.2

Ki measured on CCCCCc1cc(O)cc(OCCCCCCCCCCC(=O)NC(CO)CO)c1 = 540
